Origin of measurements: the supplement of paper PMC11246515

# Test: total protein half-life in vivo (active degradation + dilution); higher = more stable protein
# Test Conditions: wild type E. coli NCM3722; growth: N-lim chemostat; doubling time 6 h
Classify by measured total protein half-life in vivo: Satisfied if it is equal to or exceeds 4 h, Not satisfied if it is smaller.

Example results:
{"Sequence Content": "MSSNTFTLGTKSVNRLGYGAMQLAGPGVFGPPRDRHVAITVLREALALGVNHIDTSDFYGPHVTNQIIREALYPYSDDLTIVTKIGARRGEDASWLPAFSPAELQKAVHDNLRNLGLDVLDVVNLRVMMGDGHGPAEGSIEASLTVLAEMQQQGLVKHIGLSNVTPTQVAEARKIAEIVCVQNEYNIAHRADDAMIDALAHDGIAYVPFFPLGGFTPLQSSTLSDVAASLGATPMQVALAWLLQRSPNILLIPGTSSVAHLRENMAAEKLHLSEEVLSTLDGISRE", "Classification": "Satisfied"}
{"Sequence Content": "MSNITIYHNPACGTSRNTLEMIRNSGTEPTIIHYLETPPTRDELVKLIADMGISVRALLRKNVEPYEELGLAEDKFTDDRLIDFMLQHPILINRPIVVTPLGTRLCRPSEVVLEILPDAQKGAFSKEDGEKVVDEAGKRLK [P0AB96]", "Classification": "Not satisfied"}
{"Sequence Content": "MQDRNFDDIAEKFSRNIYGTTKGQLRQAILWQDLDRVLAEMGPQKLRVLDAGGGEGQTAIKMAERGHQVILCDLSAQMIDRAKQAAEAKGVSDNMQFIHCAAQDVASHLETPVDLILFHAVLEWVADPRSVLQTLWSVLRPGGVLSLMFYNAHGLLMHNMVAGNFDYVQAGMPKKKKRTLSPDYPRDPAQVYLWLEEAGWQIMGKTGVRVFHDYLREKHQQRDCYEALLELETRYCRQEPYITLGRYIHVTARKPQSKDKV", "Classification": "Satisfied"}
{"Sequence Content": "MFQLSVQDIHPGEKAGDKEEAIRQVAAALVQAGNVAEGYVNGMLAREQQTSTFLGNGIAIPHGTTDTRDQVLKTGVQVFQFPEGVTWGDGQVAYVAIGIAASSDEHLGLLRQLTHVLSDDSVAEQLKSATTAEELRALLMGEKQSEQLKLDNEMLTLDIVASDLLTLQALNAARLKEAGAVDATFVTKAINEQPLNLGQGIWLSDSAEGNLRSAIAVSRAANAFDVDGETAAMLVSVAMNDDQPIAVLKRLADLLLDNKADRLLKADAATLLALLTSDDAPTDDVLSAEFVVRNEHGLHARPGTMLVNTIKQFNSDITVTNLDGTGKPANGRSLMKVVALGVKKGHRLRFTAQGADAEQALKAIGDAIAAGLGEGA", "Classification": "Satisfied"}
{"Sequence Content": "MTIKNKMLLGALLLVTSAAWAAPATAGSTNTSGISKYELSSFIADFKHFKPGDTVPEMYRTDEYNIKQWQLRNLPAPDAGTHWTYMGGAYVLISDTDGKIIKAYDGEIFYHR", "Classification": "Satisfied"}
{"Sequence Content": "MNHSLKPWNTFGIDHNAQHIVCAEDEQQLLNAWQYATAEGQPVLILGEGSNVLFLEDYRGTVIINRIKGIEIHDEPDAWYLHVGAGENWHRLVKYTLQEGMPGLENLALIPGCVGSSPIQNIGAYGVELQRVCAYVDSVELATGKQVRLTAKECRFGYRDSIFKHEYQDRFAIVAVGLRLPKEWQPVLTYGDLTRLDPTTVTPQQVFNAVCHMRTTKLPDPKVNGNAGSFFKNPVVSAETAKALLSQFPTAPNYPQADGSVKLAAGWLIDQCQLKGMQIGGAAVHRQQALVLINEDNAKSEDVVQLAHHVRQKVGEKFNVWLEPEVRFIGASGEVSAVETIS", "Classification": "Not satisfied"}

We now examine a further sequence.
Check if total protein half-life in vivo >= 4 h (inclusive). Item: MRFYRPLGRISALTFDLDDTLYDNRPVILRTEREALTFVQNYHPALRSFQNEDLQRLRQAVREAEPEIYHDVTRWRFRSIEQAMLDAGLSAEEASAGAHAAMINFAKWRSRIDVPQQTHDTLKQLAKKWPLVAITNGNAQPELFGLGDYFEFVLRAGPHGRSKPFSDMYFLAAEKLNVPIGEILHVGDDLTTDVGGAIRSGMQACWIRPENGDLMQTWDSRLLPHLEISRLASLTSLI [P0ADP0]
Not satisfied
